- Assay System: T1, cynomolgus monkey BCMA (cynomolgus monkey, UniProt A0A2K5UD97 1-53)
- T1 construct: Soluble analyte in SPR; construct not described; also called cyBCMA; Cyno BCMA
- T1 sequence (A0A2K5UD97 entry or part of it): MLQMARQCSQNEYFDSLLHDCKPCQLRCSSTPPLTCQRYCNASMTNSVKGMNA
- Test Summary: SPR, IgG on chip, cyBCMA analyte
Could you mark each record 1.0 if its koff falls strictly under 0.0008 s⁻¹, and 0.0 if it equals or exceeds it?

| Binder | Class Label |
| --- | --- |
| COMBO_Rd4_0.6nM_C29 (antibody, V domains shown, IgG) VH: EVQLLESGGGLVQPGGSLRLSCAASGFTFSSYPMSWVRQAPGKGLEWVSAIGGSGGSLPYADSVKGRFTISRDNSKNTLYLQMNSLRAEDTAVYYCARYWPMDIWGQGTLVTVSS VL: EIVLTQSPGTLSLSPGERATLSCRASQSVSSSYLAWYQQKPGQAPRLLMYDASIRATGIPDRFSGSGSGTDFTLTISRLEPEDFAVYYCQQYQSWPLTFGQGTKVEIK | 1.0 |

[ask] Dear colleague, could you confirm whether koff of A02_Rd4_0.6nM_C06 (antibody, V domains shown, IgG) VH: EVQLLESGGGLVQPGGSLRLSCAASGFTFSSYAMNWVRQAPGKGLEWVSAISDSGGSAWYADSVKGRFTISRDNSKNTLYLQMNSLRAEDTAVYYCARYWPMSLWGQGTLVTVSS VL: EIVLTQSPGTLSLSPGERATLSCRASQSVSVLYLAWYQQKPGQAPRLLMYDASIRATGIPDRFSGSGSGTDFTLTISRLEPEDFAVYYCQQYQRWPLTFGQGTKVEIK falls below 0.0008 s⁻¹? Thanks.
[reply] 1.0
